Recorded values, source patent US5574039A.

target: Candida TS ("CTS") (Candida albicans); assay: Thymidylate synthase inhibition constant Ki, Candida TS; assay type: biochemical
Sequence (P12461 whole entry): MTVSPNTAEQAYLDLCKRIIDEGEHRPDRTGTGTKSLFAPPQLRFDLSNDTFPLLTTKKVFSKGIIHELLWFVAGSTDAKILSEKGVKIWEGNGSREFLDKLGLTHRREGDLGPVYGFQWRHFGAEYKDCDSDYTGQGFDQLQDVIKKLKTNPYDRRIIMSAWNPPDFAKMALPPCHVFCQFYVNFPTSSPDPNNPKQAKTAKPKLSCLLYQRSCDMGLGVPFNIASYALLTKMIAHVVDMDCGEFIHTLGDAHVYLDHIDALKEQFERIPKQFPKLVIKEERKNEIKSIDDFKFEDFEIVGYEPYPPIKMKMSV
Ki listing for selected molecules.
endpoint_label: Ki

1) CN(Cc1ccc2cc(CO)ccc2c1)c1ccc2c3c(cccc13)C(=O)N2 :: > 10 µM
2) CCCN(Cc1ccc(S(=O)(=O)N2CCNCC2)cc1)c1ccc2c3c(cccc13)C(=O)N2 :: > 10 µM
3) CSCN(Cc1ccc(S(=O)(=O)c2ccccc2)cc1)c1ccc2c3c(cccc13)C(=O)N2 :: > 1 µM
4) CCN(Cc1ccc(S(=O)(=O)c2ccccc2)cc1)c1ccc2c3c(cccc13)C(=O)N2 :: > 1 µM
